system: HEK-293T; experiment: Multiplex assay against HEK293T; type: toxicity, cell-based; conditions: human, 24 h, 1 µM, compound concentration 1 uM, replicate 1
outcome.measure: Population Fragmented Nuclei (%)
Answers are plain numbers, in %.

Known results for compounds:
{"compound": "CN(C)C(=O)/C(C#N)=C/c1ccc(-c2nc3cnc4[nH]ccc4c3n2C2CCCCC2)o1", "system": "HEK-293T", "value.observed": 10}
{"compound": "C=CC(=O)Nc1ccc2ncnc(Nc3ccc(OCc4cccc(F)c4)c(Cl)c3)c2c1.Cc1ccc(S(=O)(=O)O)cc1", "system": "HEK-293T", "value.observed": 11}
{"compound": "CC[C@H](C)C(=O)O[C@H]1C[C@@H](C)C=C2C=C[C@H](C)[C@H](CC[C@@H]3C[C@@H](O)CC(=O)O3)[C@H]21", "system": "HEK-293T", "value.observed": 30}
{"compound": "Cc1nc(-c2ccc(-c3ccc(C(=O)N4CCc5cc6c(cc54)C4(CCN(C)CC4)CO6)cc3)c(C)c2)no1", "system": "HEK-293T", "value.observed": 17}
{"compound": "NC(=O)Nc1cc(-c2cccc(F)c2)sc1C(=O)N[C@H]1CCCNC1", "system": "HEK-293T", "value.observed": 18}
{"compound": "COc1cccc([C@@H](C)NCCCc2ccccc2Cl)c1.Cl [TECALCET HYDROCHLORIDE]", "system": "HEK-293T", "value.observed": 8}
{"compound": "CC(C)C(=O)Nc1n[nH]c2cc(-c3cccc(NS(=O)(=O)C4CC4)c3)ccc12", "system": "HEK-293T", "value.observed": 11}
{"compound": "CC(C)NCC(O)COc1ccc(CCOCC2CC2)cc1.Cl (configuration not stated) [BETAXOLOL HYDROCHLORIDE]", "system": "HEK-293T", "value.observed": 6}
{"compound": "Cc1cc(C)cc(-c2cnc3cc(Cl)c(-c4cccc(O)c4)cc3c2OCCCN)c1", "system": "HEK-293T", "value.observed": 15}
{"compound": "Cc1nc(Nc2n[nH]c3c2CN(C(=O)N[C@H](CN(C)C)c2ccccc2)C3(C)C)c2sccc2n1", "system": "HEK-293T", "value.observed": 9}

For each entry beneath this line, provide reported Population Fragmented Nuclei (%).
1. CN1CCN(CCOc2cc(OC3CCOCC3)c3c(Nc4c(Cl)ccc5c4OCO5)ncnc3c2)CC1
2. COc1ncc(-c2ccc3nccc(-c4ccnnc4)c3c2)cc1NS(=O)(=O)c1ccc(F)cc1F
3. Cc1csc2c(N[C@@H](C)CN3CCN(S(=O)(=O)c4ccc(Cl)c(Cl)c4)CC3)ncnc12
4. C[C@@]1(C(=O)Nc2ccc(F)nc2)CCCN1c1nc(Nc2cc(C3CC3)n[nH]2)c2cccn2n1
5. COc1cc(-n2cnc3cc(-c4ccc(Cl)cc4)sc3c2=O)ccc1OCCN1CCCC1
6. Cc1nc(-c2cn3c(n2)-c2ccc(-c4cnn(C(C)(C)C(N)=O)c4)cc2OCC3)n(C(C)C)n1

output:
11
21
16
18
11
16

input: # get_value(readout='Population Fragmented Nuclei (%)', item= CN(C)C(=O)N[C@H]1CC[C@H](CCN2CCN(c3cccc(Cl)c3Cl)CC2)CC1.Cl [CARIPRAZINE HYDROCHLORIDE] )
output: 14

====

system: Fibroblast; assay: Multiplex assay against human fibroblast; type: toxicity, cell-based; conditions: 48 h, 1 µM, compound concentration 1 uM, replicate 1
outcome.measure: Population Normal (%)
Numbers only, in %.

Known results for molecules:
{"molecule": "CN1CCCC(n2nc(Cc3ccc(Cl)cc3)c3ccccc3c2=O)CC1.Cl (stereo not drawn) [AZELASTINE HYDROCHLORIDE]", "Population Normal (%)": 88}
{"molecule": "CC(C)NCC(O)COc1ccc(CCOCC2CC2)cc1.Cl (stereo not drawn) [BETAXOLOL HYDROCHLORIDE]", "Population Normal (%)": 87}
{"molecule": "OC1(c2ccc(Cl)cc2)CCN(Cc2c[nH]c3ccccc23)CC1", "Population Normal (%)": 100}
{"molecule": "CN1CCN(c2ccc(OC(F)(F)F)c(Nc3ncc4c(n3)-c3c(c(C(N)=O)nn3CCO)CC4)c2)CC1 [ONVANSERTIB]", "Population Normal (%)": 78}
{"molecule": "CN(C)CC#Cc1ccc(OCCCc2sc(N3CCc4cccc(C(=O)Nc5nc6ccccc6s5)c4C3)nc2C(=O)O)c(F)c1 [A-1155463]", "Population Normal (%)": 81}
{"molecule": "C=CC(=O)Nc1ccc2ncnc(Nc3ccc(OCc4cccc(F)c4)c(Cl)c3)c2c1.Cc1ccc(S(=O)(=O)O)cc1", "Population Normal (%)": 91}

For each entry beneath this line, provide reported Population Normal (%).
1. Cc1[nH]c(/C=C2\C(=O)Nc3ccc(S(=O)(=O)N(C)c4cccc(Cl)c4)cc32)c(C)c1C(=O)N1CCN(C)CC1
2. Cc1cc(C)cc(-c2cnc3cc(Cl)c(-c4cccc(O)c4)cc3c2OCCCN)c1

output:
[88, 80]

====

tested on: HEK-293T; assay: Multiplex assay against HEK293T; format: toxicity, cell-based; settings: human, 12 h, 1 µM, compound concentration 1 uM, replicate 1
Could you please report measured Population Pyknosed Nuclei (%) for the items listed next?
Numbers only, in %.

Known results for compounds:
{"compound": "O=C1NCN(c2ccccc2)C12CCN(CCCOc1ccc(F)cc1)CC2 [SPIRAMIDE]", "Population Pyknosed Nuclei (%)": 45}
{"compound": "CC(C)(O)CNc1ncc(-c2ccnc(Nc3ccnc(Cl)c3)n2)c(CC2CC2)n1", "Population Pyknosed Nuclei (%)": 59}
{"compound": "CN(C)C(=O)N[C@H]1CC[C@H](CCN2CCN(c3cccc(Cl)c3Cl)CC2)CC1.Cl [CARIPRAZINE HYDROCHLORIDE]", "Population Pyknosed Nuclei (%)": 42}
{"compound": "Cl.N#Cc1ccc2[nH]cc(CCCCN3CCN(c4ccc5oc(C(N)=O)cc5c4)CC3)c2c1 [VILAZODONE HYDROCHLORIDE]", "Population Pyknosed Nuclei (%)": 44}
{"compound": "COc1ncc(-c2ccc3nccc(-c4ccnnc4)c3c2)cc1NS(=O)(=O)c1ccc(F)cc1F", "Population Pyknosed Nuclei (%)": 64}
{"compound": "CN(C)CC#Cc1ccc(OCCCc2sc(N3CCc4cccc(C(=O)Nc5nc6ccccc6s5)c4C3)nc2C(=O)O)c(F)c1", "Population Pyknosed Nuclei (%)": 45}
{"compound": "CNc1nc(NCc2ccc(NS(C)(=O)=O)cc2Cl)cc(-c2ccccn2)n1", "Population Pyknosed Nuclei (%)": 44}
{"compound": "COc1cccc([C@@H](C)NCCCc2ccccc2Cl)c1.Cl [TECALCET HYDROCHLORIDE]", "Population Pyknosed Nuclei (%)": 44}

Could you now look at the following compound, please?
input: # get_value(readout='Population Pyknosed Nuclei (%)', item= CCN(CC)CCCCNc1ncc2cc(-c3cc(OC)cc(OC)c3)c(NC(=O)NC(C)(C)C)nc2n1 )
output: 11

====

test system: Fibroblast; assay: Multiplex assay against human fibroblast; type: toxicity, cell-based; conditions: 24 h, 1 µM, compound concentration 1 uM, replicate 1
outcome.measure: Population Healthy Nuclei (%)
One number for each entry, in %.

Known results for compounds:
{"compound": "COc1cc(-n2cnc3cc(-c4ccc(Cl)cc4)sc3c2=O)ccc1OCCN1CCCC1", "display.unit": "%", "Population Healthy Nuclei (%)": 47}
{"compound": "C=CC(=O)Nc1cccc(C(=O)Nc2ccc(Nc3cc(-c4[nH]c(SC)nc4C)ccn3)cc2)c1", "display.unit": "%", "Population Healthy Nuclei (%)": 55}

For each entry beneath this line, provide reported Population Healthy Nuclei (%).
1. Cc1nc(Nc2n[nH]c3c2CN(C(=O)N[C@H](CN(C)C)c2ccccc2)C3(C)C)c2sccc2n1 [PF-03758309]
2. CN(C)C(=O)N[C@H]1CC[C@H](CCN2CCN(c3cccc(Cl)c3Cl)CC2)CC1.Cl [CARIPRAZINE HYDROCHLORIDE]
3. C[C@@H](NCCCc1cccc(C(F)(F)F)c1)c1cccc2ccccc12.Cl [CINACALCET HYDROCHLORIDE]

output:
1. 53
2. 49
3. 50

For each entry beneath this line, provide reported Population Healthy Nuclei (%).
1. C=CC(=O)Nc1cc2c(Nc3ccc(F)c(Cl)c3)ncnc2cc1OCCCN1CCOCC1.Cl.Cl [CANERTINIB DIHYDROCHLORIDE]
2. NC(=O)Nc1cc(-c2cccc(F)c2)sc1C(=O)N[C@H]1CCCNC1 [AZD-7762]

output:
1. 38
2. 62

====

system: Fibroblast; test: Multiplex assay against human fibroblast; assay type: toxicity, cell-based; settings: 48 h, 1 µM, compound concentration 1 uM, replicate 1
Could you please report measured Population Normal (%) for the items listed next?
Numbers only, in %.

{"molecule": "c1cn2cc(-c3ccc4cn[nH]c4c3)nc(Nc3ccc(N4CCOCC4)cc3)c2n1", "system": "Fibroblast", "value.observed": 84}

For each entry beneath this line, provide reported Population Normal (%).
1. Cl.N#Cc1ccc2[nH]cc(CCCCN3CCN(c4ccc5oc(C(N)=O)cc5c4)CC3)c2c1 [VILAZODONE HYDROCHLORIDE]
2. Cn1cc(-c2[nH]c3cc(NC(=O)[C@H](N)C4CCCCC4)cc4c3c2C=NNC4=O)cn1
3. CN1CCC[C@@H]1CCO[C@](C)(c1ccccc1)c1ccc(Cl)cc1.O=C(O)/C=C/C(=O)O [CLEMASTINE FUMARATE]
4. Cc1nc(-c2ccc(-c3ccc(C(=O)N4CCc5cc6c(cc54)C4(CCN(C)CC4)CO6)cc3)c(C)c2)no1
5. Cc1csc2c(N[C@@H](C)CN3CCN(S(=O)(=O)c4ccc(Cl)c(Cl)c4)CC3)ncnc12
6. CC(C)(O)CNc1ncc(-c2ccnc(Nc3ccnc(Cl)c3)n2)c(CC2CC2)n1
7. CNc1nc(NCc2ccc(NS(C)(=O)=O)cc2Cl)cc(-c2ccccn2)n1

output:
[69, 85, 72, 78, 90, 81, 82]
